Catalogue of PHOSPHORUS values
species: Rattus norvegicus; test: DrugMatrix - Regimen: Daily Repeat; assay type: toxicity, organism-based, Sprague-Dawley; design: regimen Daily Repeat, gender Male, age 6-8 weeks; conditions: in vivo, iv, 0 mg/kg, 72 h, tissue Plasma, dose level Control, time 3 day, vehicle 100 % SALINE

substance_smiles	unit_symbol	PHOSPHORUS
CCC1=C[C@@H]2CN(C1)Cc1c([nH]c3ccccc13)[C@@](C(=O)OC)(c1cc3c(cc1OC)N(C)[C@H]1[C@@](O)(C(=O)OC)[C@H](OC(C)=O)[C@]4(CC)C=CCN5CC[C@]31[C@@H]54)C2	mg/dL	12.12
CC[C@]1(O)C[C@@H]2CN(CCc3c([nH]c4ccccc34)[C@@](C(=O)OC)(c3cc4c(cc3OC)N(C)[C@H]3[C@@](O)(C(=O)OC)[C@H](OC(C)=O)[C@]5(CC)C=CCN6CC[C@]43[C@@H]65)C2)C1	mg/dL	12.68
CCc1c2c(nc3ccc(OC(=O)N4CCC(N5CCCCC5)CC4)cc13)-c1cc3c(c(=O)n1C2)COC(=O)[C@]3(O)CC	mg/dL	13.55
CC(=O)N[C@@H]1[C@H](Oc2c3cc4cc2Oc2ccc(cc2Cl)[C@@H](O[C@@H]2O[C@@H](CO)[C@@H](O)[C@H](O)[C@@H]2NC(C)=O)[C@@H]2NC(=O)[C@H](NC(=O)[C@@H]4NC(=O)[C@H]4NC(=O)[C@@H](Cc5ccc(c(Cl)c5)O3)NC(=O)[C@H](N)c3ccc(O)c(c3)Oc3cc(O)cc4c3)c3ccc(O)c(c3)-c3c(O[C@H]4O[C@H](CO)[C@@H](O)[C@@H](O)[C@@H]4O)cc(O)cc3[C@@H](C(=O)O)NC2=O)O[C@@H](CO)[C@@H](O)[C@@H]1O	mg/dL	12.37

====

species on record: Rattus norvegicus; experiment: DrugMatrix - Regimen: Daily Repeat; format: toxicity, organism-based, Sprague-Dawley; parameters: regimen Daily Repeat, gender Male, age 6-8 weeks; settings: in vivo, po, 1500 mg/kg, 72 h, tissue Plasma, route oral GAVAGE, dose level High, time 3 day, vehicle .5 % CMC

compound	GLUCOSE [mg/dL]
C[C@]1(Cn2ccnn2)[C@H](C(=O)O)N2C(=O)C[C@H]2S1(=O)=O [TAZOBACTAM]	161.67
O=C(N[C@H](CO)[C@H](O)c1ccc([N+](=O)[O-])cc1)C(Cl)Cl [CHLORAMPHENICOL]	150
CO[C@H]1/C=C/O[C@@]2(C)Oc3c(C)c(O)c4c(c3C2=O)C2=NC3(CCN(CC(C)C)CC3)NC2=C(NC(=O)/C(C)=C\C=C\[C@H](C)[C@H](O)[C@@H](C)[C@@H](O)[C@@H](C)[C@H](OC(C)=O)[C@@H]1C)C4=O [RIFABUTIN]	160
Cc1cc(=O)n(-c2ccccc2)n1C [ANTIPYRINE]	141.67
NC(=O)c1cnccn1 [PYRAZINAMIDE]	153
CNC(=C[N+](=O)[O-])NCCSCc1ccc(CN(C)C)o1 [RANITIDINE]	146
Cc1ccc(S(=O)(=O)NC(=O)NN2CC3CCCC3C2)cc1 (configuration not stated) [GLICLAZIDE]	104.67

====

species: Rattus norvegicus; assay: DrugMatrix - Regimen: Daily Repeat; assay type: toxicity, organism-based, Sprague-Dawley; design: regimen Daily Repeat, gender Male, age 6-8 weeks; details: in vivo, po, 10 mg/kg, 120 h, tissue Blood, route oral GAVAGE, dose level Low, time 5 day, […]
Collected LEUKOCYTE COUNT values appear next to each entry.

compound	unit_symbol	LEUKOCYTE COUNT
COc1ccc2cc([C@H](C)C(=O)O)ccc2c1	x10E3/uL	19.1
CC(C)CC(N(C)C)C1(c2ccc(Cl)cc2)CCC1 (centres undefined)	x10E3/uL	14.87
COCCOC(=O)C1=C(C)NC(C)=C(C(=O)OC(C)C)C1c1cccc([N+](=O)[O-])c1 (centres undefined)	x10E3/uL	14.63
CCOC(=O)C1=C(C)NC(C)=C(C(=O)OC)C1c1cccc([N+](=O)[O-])c1 (centres undefined)	x10E3/uL	11.6

Where do the numbers come from? From ChEMBL document CHEMBL3885881.
